Biological target: PI3K gamma (Homo sapiens)
Construct: His tag (C); made in house; host or cells: construct from Roger Williams lab (MRC LMB); baculovirus (pVL1393); Tn5 (Trichoplusia ni) or TiniPro insect cells
Sequence (P48736 144-1102 limits assumed): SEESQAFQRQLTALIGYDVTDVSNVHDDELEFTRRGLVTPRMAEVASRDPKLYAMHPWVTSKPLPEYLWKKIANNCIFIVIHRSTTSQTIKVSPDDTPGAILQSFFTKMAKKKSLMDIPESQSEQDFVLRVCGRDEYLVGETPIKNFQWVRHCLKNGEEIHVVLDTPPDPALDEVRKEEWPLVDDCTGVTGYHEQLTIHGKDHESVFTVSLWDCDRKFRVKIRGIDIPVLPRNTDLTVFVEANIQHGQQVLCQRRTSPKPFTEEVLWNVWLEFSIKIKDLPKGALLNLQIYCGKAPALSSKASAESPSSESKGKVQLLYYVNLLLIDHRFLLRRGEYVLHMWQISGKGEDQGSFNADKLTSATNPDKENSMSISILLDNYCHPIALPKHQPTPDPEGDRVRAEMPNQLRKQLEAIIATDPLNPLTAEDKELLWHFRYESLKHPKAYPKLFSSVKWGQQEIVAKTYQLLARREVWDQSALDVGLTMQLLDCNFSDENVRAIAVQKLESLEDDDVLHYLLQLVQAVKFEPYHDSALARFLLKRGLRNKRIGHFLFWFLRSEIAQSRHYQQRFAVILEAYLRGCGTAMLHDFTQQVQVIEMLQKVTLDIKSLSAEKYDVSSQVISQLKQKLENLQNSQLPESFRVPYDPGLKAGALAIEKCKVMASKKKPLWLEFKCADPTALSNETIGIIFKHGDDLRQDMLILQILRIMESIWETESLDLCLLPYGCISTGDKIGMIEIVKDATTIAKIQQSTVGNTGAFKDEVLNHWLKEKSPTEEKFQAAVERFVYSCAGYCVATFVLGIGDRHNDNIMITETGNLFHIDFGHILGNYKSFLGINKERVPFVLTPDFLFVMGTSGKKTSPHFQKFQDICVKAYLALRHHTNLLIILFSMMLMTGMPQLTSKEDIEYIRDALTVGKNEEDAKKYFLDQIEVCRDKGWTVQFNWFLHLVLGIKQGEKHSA
Assay: PI3K gamma enzymatic assay (Kinase-Glo luminescence)
Assay type: biochemical
Conditions: Enzymatic Data
The reader will find reported IC50 values listed item by item below.
Give the number; nM is assumed, so skip it.

Req: For `COc1cc(-c2ccc3nc(C)c(-c4cnc(N)c(C(F)(F)F)c4)n3n2)ccc1OCCCN` , what is its reported IC50?
Resp: 507

Req: For `COc1ccc(-c2ccc3nc(C)c(-c4ccc(O)nc4)n3n2)cc1OC` , what is its reported IC50?
Resp: 303

Req: For `Cc1nc2ccc(-c3ccc(OCCCN4CCCC4=O)cc3)nn2c1-c1cnc(N)c(C(F)(F)F)c1` , what is its reported IC50?
Resp: 518
